# ASSAY SYSTEM: human D3 receptor (Homo sapiens, UniProt P35462)
# Sequence (P35462 whole entry): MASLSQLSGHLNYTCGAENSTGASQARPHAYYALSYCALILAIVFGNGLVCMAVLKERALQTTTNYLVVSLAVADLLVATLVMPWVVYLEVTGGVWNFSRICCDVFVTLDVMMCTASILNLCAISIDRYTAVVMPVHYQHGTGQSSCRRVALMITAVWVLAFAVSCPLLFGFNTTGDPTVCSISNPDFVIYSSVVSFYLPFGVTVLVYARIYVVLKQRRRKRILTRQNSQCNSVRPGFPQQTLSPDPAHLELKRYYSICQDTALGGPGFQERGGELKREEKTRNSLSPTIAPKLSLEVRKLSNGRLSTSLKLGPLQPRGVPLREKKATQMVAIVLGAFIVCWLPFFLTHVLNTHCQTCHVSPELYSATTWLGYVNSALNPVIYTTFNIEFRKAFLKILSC
# METHOD: R-SAT assay D3
# CONDITION LABEL: Table 3, D3; negative logarithm of EC50 in molar
VALUE TYPE: EC50

[Q] Looking for the measured EC50 of CCCN1CCC[C@@H](c2cccc(S(C)(=O)=O)c2)C1 [(−)-OSU6162] , can you help?
[A] 3.98 µM

###

# ASSAY SYSTEM: human 5-HT2A receptors (Homo sapiens, UniProt P28223)
# Sequence (P28223 whole entry): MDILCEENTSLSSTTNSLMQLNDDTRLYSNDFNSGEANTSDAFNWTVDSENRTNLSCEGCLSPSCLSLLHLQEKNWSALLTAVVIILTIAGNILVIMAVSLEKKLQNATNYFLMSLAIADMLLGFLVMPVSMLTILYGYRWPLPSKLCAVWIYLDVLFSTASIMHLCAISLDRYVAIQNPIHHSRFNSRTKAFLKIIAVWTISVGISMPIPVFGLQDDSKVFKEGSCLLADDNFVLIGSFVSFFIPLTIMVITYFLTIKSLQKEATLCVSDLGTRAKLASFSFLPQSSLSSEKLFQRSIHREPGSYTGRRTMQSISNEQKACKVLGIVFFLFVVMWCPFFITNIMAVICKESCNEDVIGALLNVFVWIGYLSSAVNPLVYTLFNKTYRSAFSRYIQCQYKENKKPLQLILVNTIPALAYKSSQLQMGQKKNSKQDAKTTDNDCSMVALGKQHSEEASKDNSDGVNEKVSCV
# METHOD: R-SAT functional assay at 5-HT2A
# Format: cell-based
# Parameters: expressed in transfected cells; host or cells: NIH-3T3
# CONDITION LABEL: Table 1; percent response of reference ligand 5-CT; mean ± SEM
VALUE TYPE: R-SAT Eff(%)
Give me the value, and tack the unit on after it.

[Q] Bench note: what R-SAT Eff(%) did CCCN1CCC[C@@H](c2cccc(S(C)(=O)=O)c2)C1 [(−)-OSU6162] show?
[A] 113 ± 18%

[Q] Same question, CCCN1CCC[C@H](c2cccc(S(C)(=O)=O)c2)C1 [(+)-OSU6162] this time
[A] 139 ± 14%

[Q] Could you do the same for NCCc1c[nH]c2ccc(C(N)=O)cc12 [5-CT, 5-carboxamidotryptamine, reference compound] , please?
[A] 100 ± 0%

[Q] Another compound: CCN(CC)C(=O)N[C@H]1C[C@@H]2c3cccc4[nH]cc(c34)C[C@H]2N(C)C1 [(+)-Terguride]
[A] 89 ± 13%
